Below is a list of entries, each paired with its recorded ΔTm value.
assay_details: Binding affinity to RSK4beta assessed as change in thermal denaturation at 10 uM by thermal stability shift assay
property_label: ΔTm (°C)

Cn1c2c(c3ccc(Cl)c(Cl)c31)C(C#N)C(C)(C)NC2=O (centres undefined); 2.3
Cn1c2c(Cl)c(Cl)ccc2c2cc(N)[nH]c(=O)c21; 1.2
Cn1c2c(Cl)c(Cl)ccc2c2cn[nH]c(=O)c21; 1.4
Cn1c2c(c3ccc(Cl)c(Cl)c31)C(C#N)C1(CCNCC1)NC2=O (racemic); 0.8

###

Quick reference: ΔTm of the listed items.
assayed_target: Serine/threonine-protein kinase pim-1 (Homo sapiens)
Sequence (P11309 whole entry, looked up): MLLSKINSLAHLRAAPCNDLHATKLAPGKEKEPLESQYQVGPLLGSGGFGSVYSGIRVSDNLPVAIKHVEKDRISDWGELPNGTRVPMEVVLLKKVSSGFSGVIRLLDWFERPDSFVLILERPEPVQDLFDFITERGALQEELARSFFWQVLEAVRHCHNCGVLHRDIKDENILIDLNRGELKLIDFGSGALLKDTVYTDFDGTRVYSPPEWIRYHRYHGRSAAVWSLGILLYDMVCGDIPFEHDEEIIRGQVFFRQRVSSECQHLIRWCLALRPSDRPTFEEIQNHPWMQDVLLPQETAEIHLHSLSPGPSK
assay_details: Binding affinity to PIM1 assessed as change in thermal denaturation at 10 uM by thermal stability shift assay
property_label: ΔTm (°C)

Cn1c2c(Cl)c(Cl)ccc2c2cc(N)[nH]c(=O)c21; 4
Cn1c2c(c3ccc(Cl)c(Cl)c31)C(C#N)C1(CCCC1)NC2=O (centres undefined); 3.8
CCC1(CC)NC(=O)c2c(c3ccc(Cl)c(Cl)c3n2C)C1C#N (centres undefined); 3.3
Cn1c2c(c3ccc(Cl)c(Cl)c31)C(C#N)C1(CCCCC1)NC2=O (racemic); 4.7

Sourced from ChEMBL document CHEMBL1944596
